molecular target: Gamma-aminobutyric acid receptor subunit alpha-6 (Homo sapiens, UniProt Q16445)
Sequence (Q16445 whole entry): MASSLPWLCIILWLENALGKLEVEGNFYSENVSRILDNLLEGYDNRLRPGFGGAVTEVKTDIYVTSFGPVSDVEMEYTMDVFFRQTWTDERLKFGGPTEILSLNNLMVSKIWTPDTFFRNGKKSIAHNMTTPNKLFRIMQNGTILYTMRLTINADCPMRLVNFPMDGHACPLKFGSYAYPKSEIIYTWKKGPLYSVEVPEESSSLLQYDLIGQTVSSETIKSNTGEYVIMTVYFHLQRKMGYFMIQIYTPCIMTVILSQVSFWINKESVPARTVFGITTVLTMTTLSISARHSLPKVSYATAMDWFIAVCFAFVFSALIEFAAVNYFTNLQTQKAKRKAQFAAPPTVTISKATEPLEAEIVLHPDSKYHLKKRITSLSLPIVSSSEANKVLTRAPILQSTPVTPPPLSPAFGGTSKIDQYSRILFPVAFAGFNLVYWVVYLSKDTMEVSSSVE
Ki values, listed per item

Solved cases (5 shown):
Cc1ccc(-c2nc3ccc(C)cn3c2CC(=O)N(C)C)cc1 [Ambien]    > 10000 nM
CC(C)(C)OC(=O)c1ncn2c1C1CCCN1C(=O)c1c(Br)cccc1-2 (stereo not drawn)    12.7 nM
CC(C)c1nc(-c2ncn3c2CN(C)C(=O)c2c(Cl)cccc2-3)no1 [FG 8205]    227 nM
COC(=O)c1cc2c(cn1)[nH]c1ccccc12    2050 nM
Cc1nnc2n1-c1ccc(Cl)cc1C(c1ccccc1Cl)=NC2 [Halcion]    > 10000 nM

Entry CCc1c(C(=O)OC)ncc2[nH]c3cc(OC)c(OC)cc3c12 [NSC_104999] , Gamma-aminobutyric acid receptor subunit alpha-6 (Homo sapiens, UniProt Q16445) data, Ki value: 134 nM

Note to self: Ki of Cc1nnc2ccc(-c3cccc(C(F)(F)F)c3)nn12 with Gamma-aminobutyric acid receptor subunit alpha-6 (Homo sapiens, UniProt Q16445) was > 10000 nM

Item CN1C(=O)CN=C(c2ccccc2)c2cc(Cl)ccc21 was tested on Gamma-aminobutyric acid receptor subunit alpha-6 (Homo sapiens, UniProt Q16445); the reported Ki is > 10000 nM

----------
Entries with reported Ki on Gamma-aminobutyric acid receptor subunit alpha-1 (Homo sapiens)
Sequence (P14867 whole entry): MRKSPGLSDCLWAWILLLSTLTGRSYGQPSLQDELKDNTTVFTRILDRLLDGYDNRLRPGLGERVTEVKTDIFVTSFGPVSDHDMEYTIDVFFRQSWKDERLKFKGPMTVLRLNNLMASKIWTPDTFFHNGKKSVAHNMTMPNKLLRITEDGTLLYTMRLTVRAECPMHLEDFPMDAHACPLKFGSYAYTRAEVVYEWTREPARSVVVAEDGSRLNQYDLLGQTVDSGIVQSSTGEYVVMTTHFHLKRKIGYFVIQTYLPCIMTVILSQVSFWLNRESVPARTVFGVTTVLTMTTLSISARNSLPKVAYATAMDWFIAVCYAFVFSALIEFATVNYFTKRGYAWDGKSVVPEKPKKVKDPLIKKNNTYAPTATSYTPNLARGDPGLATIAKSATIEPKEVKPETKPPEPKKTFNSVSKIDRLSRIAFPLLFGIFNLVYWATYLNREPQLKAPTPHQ
Give the number first and the unit second.

In the examples that follow, each entry is paired with its recorded Ki.
COC(=O)c1cc2c(cn1)[nH]c1ccccc12    1 nM
CCOC(=O)c1ncn2c1CN(C)C(=O)c1cc(N=[N+]=[N-])ccc1-2    2.6 nM

Looking up CC(C)c1nc(-c2ncn3c2CN(C)C(=O)c2c(Cl)cccc2-3)no1 , I found its Ki recorded as 0.68 nM

The recorded Ki for entry CCc1c(C(=O)OC)ncc2[nH]c3cc(OC)c(OC)cc3c12 equals 11.2 nM

Given item Cc1nnc2ccc(-c3cccc(C(F)(F)F)c3)nn12 , the value recorded as its Ki is 89.5 nM
